assay: Hemolytic activity against Homo sapiens (human) RBC assessed as hemoglobin release after 1 hr; format: ADME, cell-based, Erythrocyte; conditions: red blood cells, read-out: HD50
HC50 at 1 h values for the substances below.

substance: H-WKLFKKILKWL-NH2
HC50 at 1 h: 26 µM

substance: H-LKLFKKILKVL-NH2
HC50 at 1 h: 190 µM

substance: H-WKLFKKILKVL-NH2
HC50 at 1 h: 104 µM
